# Target Or System: JAK1 (Homo sapiens, UniProt P23458)
# Construct: JAK1 (aa 850-1154) and TYK2 (aa 871-1187) are expressed with an N-terminally fused GST-tag; GST (N); purchased Carna Biosciences, Inc; host or cells: baculovirus expression system
# Sequence (P23458 850-1154): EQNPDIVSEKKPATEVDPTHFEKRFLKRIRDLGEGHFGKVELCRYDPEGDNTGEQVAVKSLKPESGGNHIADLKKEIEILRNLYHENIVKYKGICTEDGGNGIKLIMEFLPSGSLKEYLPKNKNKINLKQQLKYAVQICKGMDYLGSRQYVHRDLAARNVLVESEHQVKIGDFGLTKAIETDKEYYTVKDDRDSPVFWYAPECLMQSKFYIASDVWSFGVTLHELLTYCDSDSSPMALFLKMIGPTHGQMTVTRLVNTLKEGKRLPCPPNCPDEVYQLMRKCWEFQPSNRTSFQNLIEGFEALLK
# Experiment Summary: JAK1 kinase assay (HTRF, inhibition of phosphorylation of a synthetic peptide)
# Type: biochemical
# Experimental Conditions: catalytic domain aa 850-1154, GST-tag; 7 μM ATP (Km); read-out: JAK1 kinase inhibitory activity (EC50)
Examples of molecules with documented EC50 follow.
Measurement Type: EC50

>>> print(df.to_string())
                              record_smiles          result
0  Cc1c[nH]c(C(=O)N2CCCN(c3ncnc4[nH]ccc34)CC23CC3)c1        < 100 nM
1  O=C(c1ccc(O)nc1)N1CCCN(c2ncnc3[nH]ccc23)CC12CC2  100 to 1000 nM
2  CCCCC(=O)Nc1nc(N2CCN(Cc3ccccc3)CC3(CC3)C2)c2cc[nH]c2n1       > 1000 nM
3  NS(=O)(=O)CCCC(=O)N1CCN(c2ncnc3[nH]ccc23)CC2(CC2)C1        < 100 nM

====

# Target Or System: JAK3 (Homo sapiens, UniProt P52333)
# Construct: All four purified enzymes contain only the catalytic domain; His (N)
# Sequence (P52333 822-1111 limits assumed): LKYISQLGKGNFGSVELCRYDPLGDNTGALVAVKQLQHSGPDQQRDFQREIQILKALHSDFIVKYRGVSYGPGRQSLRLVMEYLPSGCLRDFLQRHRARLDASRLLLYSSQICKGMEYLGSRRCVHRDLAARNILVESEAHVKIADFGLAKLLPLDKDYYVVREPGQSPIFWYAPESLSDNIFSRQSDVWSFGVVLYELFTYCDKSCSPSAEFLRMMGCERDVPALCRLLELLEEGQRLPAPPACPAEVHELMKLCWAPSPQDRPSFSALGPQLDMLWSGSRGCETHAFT
# Experiment Summary: JAK3 kinase assay (HTRF, inhibition of phosphorylation of a synthetic peptide)
# Experimental Conditions: catalytic domain, His-tag; 2 μM ATP (Km); read-out: JAK3 kinase inhibitory activity (EC50)
# Procedure: JAK1, JAK2, JAK3 and TYK2 Kinase Assays: Human baculovirus-expressed JAK1, 2, 3 and TYK2 were purchased from Carna Biosciences, Inc. All four purified enzymes contain only the catalytic domain. […] Inhibition of phosphorylation of a synthetic peptide was measured in an HTRF-based assay using the TK substrate-Biotin from the CisbioHTRFKinEASE TK kit. […] The HTRF signal is read using an Envision plate reader.
pEC50: −log10 of the molar value.
Examples of compounds with documented pEC50 follow.
Measurement Type: pEC50

                                   compound  measurement_type        result
0  NS(=O)(=O)c1ccc(CC(=O)N2CCN(c3ncnc4[nH]ccc34)CC3(CC3)C2)s1 [Example 76]             pEC50        > 7.00
1  O=C1OCCN1CC(=O)N1CCCN(c2ncnc3[nH]ccc23)CC12CC2 [Example 86]             pEC50        < 6.00
2  O=C(c1ccno1)N1CCN(c2ncnc3[nH]ccc23)CC2(CC2)C1 [Example 177]             pEC50  6.00 to 7.00
3  N#Cc1ccc(C(=O)N2CCCN(c3ncnc4[nH]ccc34)CC23CC3)o1 [Example 258]             pEC50  6.00 to 7.00
4  NS(=O)(=O)c1cc(C(=O)N2CCN(c3ncnc4[nH]ccc34)CC3(CC3)C2)cs1 [Example 75]             pEC50  6.00 to 7.00
5  Cc1cnccc1C(=O)N1CCCN(c2ncnc3[nH]ccc23)CC12CC2 [Example 138]             pEC50        < 6.00
6  N#Cc1ccc(C(=O)N2CCN(c3ncnc4[nH]ccc34)CC3(CC3)C2)cc1F [Example 42]             pEC50  6.00 to 7.00
7  Cc1nnc(C(=O)N2CCCN(c3ncnc4[nH]ccc34)CC23CC3)[nH]1 [Example 257]             pEC50        < 6.00

====

Examples of compounds with documented EC50 follow.
# Target Or System: JAK2 (Homo sapiens, UniProt O60674)
# Construct: All four purified enzymes contain only the catalytic domain; His (N)
# Sequence (O60674 849-1124 limits assumed): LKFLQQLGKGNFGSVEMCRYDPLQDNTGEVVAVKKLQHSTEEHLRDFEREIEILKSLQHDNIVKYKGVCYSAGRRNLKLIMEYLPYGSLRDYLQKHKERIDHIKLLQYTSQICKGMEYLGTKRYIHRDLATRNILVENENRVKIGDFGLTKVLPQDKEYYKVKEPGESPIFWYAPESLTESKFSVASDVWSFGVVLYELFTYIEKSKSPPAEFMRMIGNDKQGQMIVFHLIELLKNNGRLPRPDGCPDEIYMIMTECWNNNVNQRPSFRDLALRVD
# Experiment Summary: JAK2 kinase assay (HTRF, inhibition of phosphorylation of a synthetic peptide)
# Experimental Conditions: catalytic domain, His-tag; 4 μM ATP (Km); read-out: JAK2 kinase inhibitory activity (EC50)
Measurement Type: EC50

In [3]: df
Out[3]:
                                    compound  measurement_type          result
 0  N#Cc1csc(C(=O)N2CCCN(c3ncnc4[nH]ccc34)CC23CC3)c1 [Example 119]              EC50        < 100 nM
 1  O=C(c1c[nH]nn1)N1CCN(c2ncnc3[nH]ccc23)CC2(CC2)C1 [Example 204]              EC50  100 to 1000 nM
 2  O=C(c1nc[nH]n1)N1CCCN(c2ncnc3[nH]ccc23)CC12CC2 [Example 228]              EC50  100 to 1000 nM
 3  O=C(c1ccc(Cl)cc1)N1CCCN(c2ncnc3[nH]ccc23)CC12CC2 [Example 180]              EC50        < 100 nM
 4  COCCNS(=O)(=O)c1ccc(C(=O)N2CCN(c3ncnc4[nH]ccc34)CC3(CC3)C2)cc1 [Example 74]              EC50  100 to 1000 nM
 5  N#Cc1ccccc1CC(=O)N1CCN(c2ncnc3[nH]ccc23)CC2(CC2)C1 [Example 272]              EC50        < 100 nM
 6  c1ccc(CN2CCN(c3ncnc4[nH]ccc34)CC3(CC3)C2)cc1 [Example 107]              EC50       > 1000 nM
 7  O=C(c1c[nH]cn1)N1CCN(c2ncnc3[nH]ccc23)CC2(CC2)C1 [Example 133]              EC50  100 to 1000 nM
 8  O=C(c1ccon1)N1CCN(c2ncnc3[nH]ccc23)CC2(CC2)C1 [Example 152]              EC50  100 to 1000 nM
 9  N#CCCC(=O)N1CCN(c2ncnc3[nH]ccc23)CCC12CC2 [Example 49]              EC50  100 to 1000 nM
10  NS(=O)(=O)c1ccc(-c2ccc(C(=O)N3CCN(c4ncnc5[nH]ccc45)CC4(CC4)C3)o2)cc1 [Example 65]              EC50        < 100 nM
11  O=C(c1ccon1)N1CCCN(c2ncnc3[nH]ccc23)CC12CC2 [Example 153]              EC50        < 100 nM
12  O=C(c1n[nH]c(Cl)n1)N1CCN(c2ncnc3[nH]ccc23)CC2(CC2)C1 [Example 231]              EC50  100 to 1000 nM
13  O=C(c1cscn1)N1CCCN(c2ncnc3[nH]ccc23)CC12CC2 [Example 227]              EC50        < 100 nM
14  Cc1cccc(CC(=O)N2CCN(c3ncnc4[nH]ccc34)CC3(CC3)C2)c1 [Example 262]              EC50        < 100 nM
15  O=C(c1ccncc1)N1CCN(c2ncnc3[nH]ccc23)CC2(CC2)C1 [Example 129]              EC50  100 to 1000 nM
16  O=C(Cc1cnc[nH]1)N1CCN(c2ncnc3[nH]ccc23)CC2(CC2)C1 [Example 89]              EC50  100 to 1000 nM
17  CC1CN(c2ncnc3[nH]ccc23)CC2(CC2)CN1C(=O)c1ccccc1 (stereo not drawn) [Example 284]              EC50       > 1000 nM

====

# Target Or System: JAK2 (Homo sapiens, UniProt O60674)
# Construct: All four purified enzymes contain only the catalytic domain; His (N)
# Experiment Summary: JAK2 kinase assay (HTRF, inhibition of phosphorylation of a synthetic peptide)
# Experimental Conditions: catalytic domain, His-tag; 4 μM ATP (Km); read-out: JAK2 kinase inhibitory activity (EC50)
Measurement Type: EC50

In [3]: df
Out[3]:
                                    compound          result
 0  Cc1noc(C)c1C(=O)N1CCCN(c2ncnc3[nH]ccc23)CC12CC2 [Example 199]       > 1000 nM
 1  N#Cc1ccc(C(=O)N2CCCN(c3ncnc4[nH]ccc34)CC23CC3)cc1 [Example 56]        < 100 nM
 2  O=C(c1cncs1)N1CCCN(c2ncnc3[nH]ccc23)CC12CC2 [Example 240]  100 to 1000 nM
 3  O=C(c1cc[nH]n1)N1CCCN(c2ncnc3[nH]ccc23)CC12CC2 [Example 183]  100 to 1000 nM
 4  NS(=O)(=O)c1cccc(C(=O)N2CCN(c3ncnc4[nH]ccc34)CC3(CC3)C2)c1 [Example 73]  100 to 1000 nM
 5  N#Cc1ccc(C(=O)N2CCCN(c3ncnc4[nH]ccc34)CC23CC3)o1 [Example 258]        < 100 nM
 6  CN(CCC#N)S(=O)(=O)N1CCN(c2ncnc3[nH]ccc23)CC2(CC2)C1 [Example 103]  100 to 1000 nM
 7  N#CCOc1ccc(CC(=O)N2CCN(c3ncnc4[nH]ccc34)CC3(CC3)C2)cc1 [Example 16]        < 100 nM
 8  N#CCN(CC#N)C(=O)N1CCN(c2ncnc3[nH]ccc23)CC2(CC2)C1 [Example 219]        < 100 nM
 9  Cc1ncc(CC(=O)N2CCN(c3ncnc4[nH]ccc34)CC3(CC3)C2)s1 [Example 247]        < 100 nM
10  O=C(c1ccno1)N1CCCN(c2ncnc3[nH]ccc23)CC12CC2 [Example 181]        < 100 nM
11  Cc1nc(CC(=O)N2CCN(c3ncnc4[nH]ccc34)CC3(CC3)C2)cs1 [Example 254]  100 to 1000 nM
12  Cc1cc(S(N)(=O)=O)ccc1C(=O)N1CCN(c2ncnc3[nH]ccc23)CC2(CC2)C1 [Example 71]  100 to 1000 nM
13  COc1cc(C(=O)N2CCN(c3ncnc4[nH]ccc34)CC3(CC3)C2)ccc1S(N)(=O)=O [Example 53]  100 to 1000 nM
14  O=C(Nc1ccccc1)N1CCCN(c2ncnc3[nH]ccc23)CC12CC2 [Example 90]  100 to 1000 nM
15  O=C(c1ccccc1F)N1CCCN(c2ncnc3[nH]ccc23)CC12CC2 [Example 112]        < 100 nM
16  CCCCC(=O)Nc1nc(N2CCCN(Cc3ccccc3)C3(CC3)C2)c2cc[nH]c2n1 [Example 283]       > 1000 nM
17  Cc1c[nH]c(C(=O)N2CCCN(c3ncnc4[nH]ccc34)CC23CC3)c1 [Example 277]        < 100 nM
18  NS(=O)(=O)c1ccc(CCC(=O)N2CCN(c3ncnc4[nH]ccc34)CC3(CC3)C2)cc1 [Example 34]        < 100 nM
19  O=C(Cc1nnn[nH]1)N1CCCN(c2ncnc3[nH]ccc23)CC12CC2 [Example 226]  100 to 1000 nM
20  O=C(Cc1ccc(OC(F)(F)F)cc1)N1CCN(c2ncnc3[nH]ccc23)CC2(CC2)C1 [Example 274]        < 100 nM
21  O=C(c1cnco1)N1CCN(c2ncnc3[nH]ccc23)CC2(CC2)C1 [Example 155]  100 to 1000 nM
22  O=C(c1cncnc1)N1CCCN(c2ncnc3[nH]ccc23)CC12CC2 [Example 161]  100 to 1000 nM
23  COc1cc(S(N)(=O)=O)ccc1C(=O)N1CCN(c2ncnc3[nH]ccc23)CC2(CC2)C1 [Example 52]        < 100 nM
24  Cc1cc(C(=O)N2CCN(c3ncnc4[nH]ccc34)CC3(CC3)C2)n(C)n1 [Example 143]       > 1000 nM
25  CC(C)(C)c1ccc(CC(=O)N2CCN(c3ncnc4[nH]ccc34)CC3(CC3)C2)cc1 [Example 267]  100 to 1000 nM
26  O=C(Cc1ccc(F)cc1)N1CCCN(c2ncnc3[nH]ccc23)CC12CC2 [Example 159]        < 100 nM
27  O=C(c1c[nH]cn1)N1CCCN(c2ncnc3[nH]ccc23)CC12CC2 [Example 134]  100 to 1000 nM
28  O=C(c1cccc(Cl)c1)N1CCN(c2ncnc3[nH]ccc23)CC2(CC2)C1 [Example 186]  100 to 1000 nM
29  O=C(Cc1ccc(Cl)cc1Cl)N1CCN(c2ncnc3[nH]ccc23)CC2(CC2)C1 [Example 270]        < 100 nM
30  COc1cccc(C(=O)N2CCN(c3ncnc4[nH]ccc34)CC3(CC3)C2)c1OC [Example 2]       > 1000 nM
31  O=C(c1ccsn1)N1CCCN(c2ncnc3[nH]ccc23)CC12CC2 [Example 201]        < 100 nM
32  O=C(Cc1ccc(Cl)cc1)N1CCCN(c2ncnc3[nH]ccc23)CC12CC2 [Example 126]        < 100 nM
33  N#Cc1ccc(CC(=O)N2CCN(c3ncnc4[nH]ccc34)CC3(CC3)C2)cc1 [Example 10]        < 100 nM
